# Tested on: MS2 coat protein
# test_method_notes: apparent KD of MS2 coat protein; designed switch direction (-1 OFF switch, 1 ON switch): -1; higher = weaker reporter binding
# applied_conditions: input ligand: FMN 200 uM
// apparent KD of MS2 coat protein lookup, one value per entry

Sample answers from the record:
polymer_sequence: AAGUAGACGGUGAGGAUAUAGGUGGAAUGACCCAUUUAGAAGGUACAUGAGGAUCACCCAUGUGGGUAACGUCG [Brourd's EX4 #28] (Eterna round: R97, puzzle: Brourd's mod of Exclusion 4)
tested_on: MS2 coat protein
apparent KD of MS2 coat protein: 156 nM
--
polymer_sequence: GGAACGACAGGAUAUACAUGAGGAUCACCCAUGUAAAGAAGAGUAAAAUGUGAAAGCGGUAGAAGGGUCAAGAA [AK-MS2ROC-r4-exclusion3-6] (Eterna round: R97, puzzle: Exclusion 3)
tested_on: MS2 coat protein
apparent KD of MS2 coat protein: 42.3 nM
--
polymer_sequence: AGAGUGCUGCGAGGAUAUACAUGAGGAUCACCCAUGUAAAUGUGUGAGGCUUUGCCUCACACAAUGUAGAAGGCGCAGUACUCA [Mat - Exclusion NG 2 - Mod of JL - D2] (Eterna round: R96, puzzle: Exclusion NG 2)
tested_on: MS2 coat protein
apparent KD of MS2 coat protein: 19 nM

I am curious: what apparent KD of MS2 coat protein value has been reported for GAGUUAACGUGAGGAAUAUACAUGAGGAUCACCCAUGUUAACAAAUUUAUUGCUCGUCUUAUAACAACAAUUAACUC [Alarm 6 - Jieux - Sensor, turn-off variant 1] (Eterna round: R97, puzzle: Sensor, turn-off variant 1) ?
23 nM
